Published IC50 for hCRTH2 receptor (Homo sapiens (Human), UniProt Q9Y5Y4), assembled from different documents, is shown next.

Qu. I am curious: what IC50 value has been reported for `CC(=O)N[C@H]1C[C@@H](C)N(C(=O)c2ccccc2)c2ccccc21` ?
Ans. ≥ 40 nM

Qu. Also, CCN(Cc1cc(C(F)(F)F)ccc1-c1cc(Cl)cc(C(C)C(=O)O)c1)C(=O)NCc1ccccc1 (centres unmarked) please.
Ans. < 300 nM

Qu. Now the same for `CCN(Cc1cc(C(F)(F)F)ccc1-c1cc(Cl)cc(CC(=O)O)c1)C(=O)C1CC1`
Ans. < 300 nM

Qu. And what about the compound `Cc1c[nH]c(-c2ccc(Oc3cccc(CC(=O)O)c3)c(CN3C(=O)O[C@H](c4ccccc4)[C@@H]3C)c2)n1` ?
Ans. < 300 nM

Qu. Another: `COc1ccc(CC(=O)O)cc1Oc1ccc(-c2ccccc2S(C)(=O)=O)cc1CN1CCOC1=O`
Ans. < 300 nM

Qu. Now this one: `COc1ccc(CC(=O)O)cc1-c1ccc(F)c2c1CN(C(=O)NCc1cccc(F)c1)CC2`
Ans. 60.1 nM

Qu. Okay, and `C[C@H]1[C@@H](c2ccccc2)OC(=O)N1Cc1cc(Br)ccc1Oc1ccc(Cl)c(CC(=O)O)c1` ?
Ans. 300 to 1000 nM

Qu. # iterate: `CCN(Cc1ccc(C(F)(F)F)cc1-c1cc(CC(=O)O)ccc1OC)C(=O)OCc1ccc(Cl)cc1`
Ans. < 300 nM

Qu. And what about the compound `COc1ccc(CC(=O)O)cc1-c1ccc(F)c2c1CN(C(=O)OCc1ccccc1F)CC2` ?
Ans. 3.06 nM

Qu. Next entry: COc1ccc(OC(C)C(=O)O)cc1-c1ccc(F)c2c1CN(C(=O)OCc1ccccc1)CC2 (racemic)
Ans. 430 nM

Qu. Query O=C(O)COc1ccc(Cl)cc1C1c2scnc2CCN1C(=O)[C@@H]1C[C@H]1c1ccccc1C(F)(F)F (mixture of isomers) next
Ans. 6.5 nM

----------
Record set: IC50 | hCRTH2 receptor (Homo sapiens (Human), UniProt Q9Y5Y4) | literature, multiple sources.
Decision: IC50 beneath 7 nM gives Yes; IC50 meeting or exceeding 7 nM gives No.

Qu. Is 7 nM strictly greater than the molecule's reported IC50? molecule: O=C(O)COc1ccc(Cl)cc1C1c2scnc2CCN1C(=O)OCn1ncc2ccccc21 (racemic)
Ans. Yes

Qu. Next molecule: `CCC(C)(C)COC(=O)N1CCc2ncsc2[C@H]1c1cc(Cl)ccc1OCC(=O)O`
Ans. Yes

Qu. And then `O=C(O)Cc1ccc(OCCF)c(-c2ccc(F)c3c2CN(C(=O)[C@@H]2C[C@H]2c2ccccc2)CC3)c1` , what is it?
Ans. Yes

Qu. Also need `CCC(=O)N(Cc1ccc(-c2ccccc2)cc1)c1cc(F)cc(-c2nnn[nH]2)c1` , thanks.
Ans. No

Qu. Moving on to the next molecule: O=C(O)COc1ccc(Cl)cc1C1c2scnc2CCN1C(=O)OCc1ccc(Cl)cc1Cl (racemic)
Ans. No

----------
Reported pIC50 on UniProtKB Q9Y5Y4 for assorted compounds, compiled from publications.
Here pIC50 is given on a logarithmic scale as minus log10 of the concentration in mol/L.

Qu. Value lookup for pIC50; key = `COc1ccc(CC(=O)O)cc1-c1ccc(Cl)c2c1CN(C(=O)OCc1ccccc1)CC2`
Ans. 8.23

Qu. Follow-up entry: `COc1cc(CC(=O)O)ccc1-c1ccc(F)c2c1CN(C(=O)CCn1ncc3cc(F)ccc31)CC2`
Ans. 8.14

Qu. Please do the same for `Cc1nn(S(=O)(=O)N(C)C)cc1-c1cc(C(F)(F)F)ccc1O[C@@H](C)C(=O)O` as well.
Ans. 8.00

Qu. Moving on to the next compound: `CCOc1cc(CC(=O)O)ccc1-c1ccc(F)c2c1CN(C(=O)C[C@@H](C)c1ccccc1)CC2`
Ans. 9.05

Qu. And for `CCOc1ccc(CC(=O)O)cc1-c1ccc(F)c2c1CN(C(=O)CCc1ncccc1OC)CC2` ?
Ans. 7.49

Qu. Input Cc1ccccc1[C@@H]1C[C@H]1C(=O)N1CCc2ncsc2C1c1cc(Cl)ccc1OCC(=O)O (mixture of isomers)
Ans. 8.19

Qu. `CCCCC(=O)N(Cc1cc2ccccc2o1)c1cc(-c2nnn[nH]2)ccc1F` , same question.
Ans. 8.07

Qu. Quick one: `CC(C)Oc1cc(CC(=O)O)ccc1-c1ccc(F)c2c1CN(C(=O)C[C@@H](C)c1ccccc1)CC2`
Ans. 8.68

Qu. # repeat for `Cc1cc(C(=O)N(Cc2ccc(S(C)(=O)=O)cc2)c2cc(F)cc(-c3nnn[nH]3)c2)n(C)n1`
Ans. 7.25

Qu. Please answer likewise for `COc1ccc(CC(=O)O)cc1-c1ccc(F)c2c1CN(C(=O)C[C@H](C)c1ccccc1)CC2`
Ans. 7.74

Qu. Param item: `CCOc1ccc(CC(=O)O)cc1-c1ccc(F)c2c1CN(C(=O)NCc1ccccc1)CC2`
Ans. 8.43

Qu. Try this compound too: `CN(Cc1ccc(-c2nccnc2NS(=O)(=O)c2ccccc2Cl)cc1)c1ccc(OC(F)(F)F)cc1`
Ans. 5.34
